assayed.system: OROV endonuclease (N-terminal endonuclease domain of OROV RNA-polymerase) (Oropouche virus, UniProt A0A0B5CUJ1)
property: IC50 (µM)
Form entry: value (µM) — number only.

Problem: For the compound COc1cc2[nH]c3c(OC)c(OC)ccc3c(=O)c2c(OC)c1OC , what IC50 is on record?
Result: 1.4
